# credit: patent US8143382B2

assay: Solubility of the dye in n-decane (saturated solution, 25° C., ordinary pressure); type: physicochemical; conditions: saturated solution, 25° C., ordinary pressure, 0.1-μm filter
ENDPOINT: Solubility (decane) (wt %)

The examples below pair each entry with its known result.
COMPOUND: CCCCc1ccc(N=Nc2ccc(N=Nc3c(CCCC)nn(C(C)(C)C)c3O)cc2)cc1
MEASUREMENT UNIT: wt %
Solubility (decane): 30
--
COMPOUND: CCCCc1nn(C(C)(C)C)c(O)c1N=Nc1ccc(N=Nc2ccccc2)cc1
MEASUREMENT UNIT: wt %
Solubility (decane): 4.2

(I) CCc1nn(C(C)(C)C)c(O)c1N=Nc1ccc(N=Nc2ccccc2)cc1
(II) Cc1nn(-c2ccccc2)c(O)c1N=Nc1ccc(N=Nc2ccccc2)cc1 [compound 1, reference compound]
Response body: label of entry with the larger Solubility (decane); valid values I , II . // caller expects the label of the chosen entry
I
(I: 3.1 wt %, II: 0.014 wt %)

* * *

assay: Absorption spectrum and colour of the n-decane solution of the dye; assay type: physicochemical; conditions: n-decane solution, wavelength range 350-800 nm
ENDPOINT: Absorption maximum wavelength (nm)

MOLECULE: CCCCc1ccc(N=Nc2ccc(N=Nc3c(CCCC)nn(C(C)(C)C)c3O)cc2)cc1
ENDPOINT: Absorption maximum wavelength
NUMERIC READOUT: 421
--
MOLECULE: Cc1nn(-c2ccccc2)c(O)c1N=Nc1ccc(N=Nc2ccccc2)cc1 [compound 1, reference compound]
ENDPOINT: Absorption maximum wavelength
NUMERIC READOUT: 416
--
MOLECULE: CCc1nn(C(C)(C)C)c(O)c1N=Nc1ccc(N=Nc2ccccc2)cc1
ENDPOINT: Absorption maximum wavelength
NUMERIC READOUT: 415
--
MOLECULE: CCCCc1nn(C(C)(C)C)c(O)c1N=Nc1ccc(N=Nc2ccccc2)cc1
ENDPOINT: Absorption maximum wavelength
NUMERIC READOUT: 417

* * *

experiment: Absorption spectrum and colour of the n-decane solution of the dye; assay type: physicochemical; settings: n-decane solution

COMPOUND STRUCTURE: CCCCc1nn(C(C)(C)C)c(O)c1N=Nc1ccc(N=Nc2ccccc2)cc1
Color of solution: yellow

COMPOUND STRUCTURE: CCc1nn(C(C)(C)C)c(O)c1N=Nc1ccc(N=Nc2ccccc2)cc1
Color of solution: yellow

COMPOUND STRUCTURE: CCCCc1ccc(N=Nc2ccc(N=Nc3c(CCCC)nn(C(C)(C)C)c3O)cc2)cc1
Color of solution: yellow
